target: T1, Vitronectin receptor (human, UniProt P06756 31-1048; P05106 27-788); experiment: competition, ELISA or liposome assay, vitronectin coated
T1 construct: mature; also called Vn-R; VnR
T1 sequence (P06756 31-1048, chain 1 of 2): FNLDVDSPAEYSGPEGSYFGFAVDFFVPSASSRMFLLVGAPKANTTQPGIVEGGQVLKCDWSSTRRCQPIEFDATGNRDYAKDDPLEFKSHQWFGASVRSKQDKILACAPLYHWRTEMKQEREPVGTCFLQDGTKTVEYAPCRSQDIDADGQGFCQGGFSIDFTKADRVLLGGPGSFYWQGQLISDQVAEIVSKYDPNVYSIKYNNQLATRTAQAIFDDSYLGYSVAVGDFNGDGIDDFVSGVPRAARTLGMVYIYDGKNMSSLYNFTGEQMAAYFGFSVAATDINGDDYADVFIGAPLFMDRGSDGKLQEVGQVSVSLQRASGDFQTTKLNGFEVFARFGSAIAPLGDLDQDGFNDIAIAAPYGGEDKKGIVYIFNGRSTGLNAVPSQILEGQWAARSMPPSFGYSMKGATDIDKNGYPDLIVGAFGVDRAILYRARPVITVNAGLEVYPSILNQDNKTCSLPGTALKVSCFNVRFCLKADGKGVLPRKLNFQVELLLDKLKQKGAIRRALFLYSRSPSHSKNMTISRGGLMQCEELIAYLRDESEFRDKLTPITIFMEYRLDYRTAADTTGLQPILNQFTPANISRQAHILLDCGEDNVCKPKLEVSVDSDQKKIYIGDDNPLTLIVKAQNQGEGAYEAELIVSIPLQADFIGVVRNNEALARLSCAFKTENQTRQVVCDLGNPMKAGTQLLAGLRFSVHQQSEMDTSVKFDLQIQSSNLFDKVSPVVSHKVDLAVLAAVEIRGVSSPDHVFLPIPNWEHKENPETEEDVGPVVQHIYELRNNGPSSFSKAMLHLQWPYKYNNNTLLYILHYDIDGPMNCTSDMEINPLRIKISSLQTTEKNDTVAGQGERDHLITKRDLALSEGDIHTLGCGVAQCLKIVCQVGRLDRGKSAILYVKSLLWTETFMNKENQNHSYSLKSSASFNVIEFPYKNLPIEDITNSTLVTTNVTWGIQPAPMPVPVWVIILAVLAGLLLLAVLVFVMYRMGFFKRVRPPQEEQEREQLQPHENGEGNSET
T1 sequence (P05106 27-788, chain 2 of 2): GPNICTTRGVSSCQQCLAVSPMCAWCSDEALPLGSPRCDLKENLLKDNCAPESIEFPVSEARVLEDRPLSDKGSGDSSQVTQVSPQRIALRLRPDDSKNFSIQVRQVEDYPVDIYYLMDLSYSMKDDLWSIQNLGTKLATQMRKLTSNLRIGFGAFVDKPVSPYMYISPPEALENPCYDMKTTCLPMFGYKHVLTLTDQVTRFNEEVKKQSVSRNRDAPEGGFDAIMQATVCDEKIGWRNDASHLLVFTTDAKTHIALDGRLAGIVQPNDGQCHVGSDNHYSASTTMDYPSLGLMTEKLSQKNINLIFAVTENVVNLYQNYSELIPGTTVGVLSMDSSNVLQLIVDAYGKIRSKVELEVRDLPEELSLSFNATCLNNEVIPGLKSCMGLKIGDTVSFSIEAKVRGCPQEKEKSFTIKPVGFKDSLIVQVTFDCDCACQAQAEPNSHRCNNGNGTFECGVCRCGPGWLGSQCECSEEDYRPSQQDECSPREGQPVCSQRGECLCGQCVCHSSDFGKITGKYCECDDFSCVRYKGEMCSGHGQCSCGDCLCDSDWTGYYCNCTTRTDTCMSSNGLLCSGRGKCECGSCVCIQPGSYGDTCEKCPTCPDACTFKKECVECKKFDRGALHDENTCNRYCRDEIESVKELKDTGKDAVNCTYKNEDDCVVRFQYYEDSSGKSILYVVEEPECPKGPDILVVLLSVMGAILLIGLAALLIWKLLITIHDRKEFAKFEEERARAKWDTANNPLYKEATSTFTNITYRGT
Starred links: 1 amine or outer side, 2 acyl side, 3 side chain; linkers in the order of their positions; H or OH if unused. Positions of bridges follow the written chain, without caps; N, C: chain ends. Non-standard residues stand in square brackets, D forms with d. Primed or numbered codes have the meaning given here. No end group written: not given here. *: point of attachment. Tyr(Me)(4) = O-methyl-tyrosine (O-Me-Tyr, TyrMe), COc1ccc(C[C@H](N[*:1])C(=O)[*:2])cc1; Tyr(OMe) = O-methyl-tyrosine (O-Me-Tyr, Y-OMe), COc1ccc(C[C@H](N[*:1])C(=O)[*:2])cc1; Tyr(Me) = O-methyl-tyrosine (Y-OMe, O-Me-Tyr), COc1ccc(C[C@H](N[*:1])C(=O)[*:2])cc1; Tyr(Me)(3) = O-methyl-tyrosine (O-Me-Tyr), COc1ccc(C[C@H](N[*:1])C(=O)[*:2])cc1; t‑but‑am‑Pmp = tert-butyl-substituted beta,beta-pentamethylenecysteine; Tyr(OMe)(3) = O-methyl-tyrosine, COc1ccc(C[C@H](N[*:1])C(=O)[*:2])cc1; Cys(β,β-pentamethylene) = O=C([C@@H](N[*:1])C1(S[*:3])CCCCC1)[*:2]; Phe(4-NO2) = N[C@@H](Cc1ccc([N+](=O)[O-])cc1)C(=O)O; Tyr(3,5-I2) = N[C@@H](Cc1cc(I)c(O)c(I)c1)C(=O)O; Cyclohexylacetyl(1-SH) = O=C(CC1(S)CCCCC1)*; Phe(4-I) = N[C@@H](Cc1ccc(I)cc1)C(=O)O; Pen = CC(C)(S)[C@H](N)C(=O)O
Listed below: IC50 values for each entry.

Binder: R[t‑but‑am‑Pmp]GHRGDLRCR (disulfide 2-10; not fully specified; printed as R(t-but-am-Pmp)GHRGDLRCR-2; also: second HPLC peak, configuration not assigned) [R(t-but-am-Pmp)GHRGDLRCR-2]
Unit string: nM
IC50: 3700

Binder: [Cyclohexylacetyl(1-SH)]GHRGDLRCA (disulfide 1-9) [(Pmp)GHRGDLRCA]
Unit string: nM
IC50: 10000

Binder: T[Cys(β,β-pentamethylene)]GHRGD[Tyr(OMe)(3)]RCR (disulfide 2-10; not fully specified; printed as T(Pmc)GHRGD(O-Me-Tyr)RCR) [T(Pmc)GHRGD(O-Me-Tyr)RCR]
Unit string: nM
IC50: 10000

Binder: R[Cys(β,β-pentamethylene)]GHRGD[Tyr(3,5-I2)]RCR (disulfide 2-10) [R(Pmc)GHRGD(3,5-diiodo-Tyr)RCR]
Unit string: nM
IC50: 900

Binder: FRGDSPDG
Unit string: nM
IC50: 40

Binder: Ac-[Cys(β,β-pentamethylene)]GHRGD[Tyr(OMe)]RC-NH2 (disulfide 1-9; SMILES COc1ccc(C[C@@H]2NC(=O)[C@H](CC(=O)O)NC(=O)CNC(=O)[C@H](CCCNC(=N)N)NC(=O)[C@H](Cc3c[nH]cn3)NC(=O)CNC(=O)[C@@H](NC(C)=O)C3(CCCCC3)SSC[C@@H](C(N)=O)NC(=O)[C@H](CCCNC(=N)N)NC2=O)cc1) [Ac(Pmc)GHRGD(O-Me-Tyr)RC-NH2]
Unit string: nM
IC50: 10000

Binder: R[Cys(β,β-pentamethylene)]GHRGDVRCR (disulfide 2-10; not fully specified; printed as R(Pmc)GHRGDVRCR) [R(Pmc)GHRGDVRCR]
Unit string: nM
IC50: 2000

Binder: R[Cys(β,β-pentamethylene)]GHRGD[Phe(4-I)]KCR (disulfide 2-10) [R(Pmc)GHRGD(p-iodo-Phe)KCR]
Unit string: nM
IC50: 8000

Binder: R[Cys(β,β-pentamethylene)]GHRGD[Phe(4-NO2)]KCR (disulfide 2-10) [R(Pmc)GHRGD(p-nitro-Phe)KCR]
Unit string: nM
IC50: 10000

Binder: VRGDSPDG
Unit string: nM
IC50: 240

Binder: R[Pen]GRGDTPCR (disulfide 2-9) [R(Pen)GRGDTPCR]
Unit string: nM
IC50: 10

Binder: R[Cys(β,β-pentamethylene)]GHRGD[Tyr(Me)]KCR (disulfide 2-10) [R(Pmc)GHRGD(O-Me-Tyr)KCR]
Unit string: nM
IC50: 10000

Binder: R[Cys(β,β-pentamethylene)]GHRGD[Tyr(Me)(4)]RCR (disulfide 2-10; also: am-Pmp2 from racemic mixture) [R(am-Pmp)GHRGD(TyrMe)RCR]
Unit string: nM
IC50: 1000

Binder: G[Cys(β,β-pentamethylene)]GHRGD[Tyr(Me)(3)]RCR (disulfide 2-10) [G(Pmc)GHRGD(O-Me-Tyr)RCR]
Unit string: nM
IC50: 10000

Binder: R[Pen]GRGDTPCA (disulfide 2-9) [R(Pen)GRGDTPCA]
Unit string: nM
IC50: 30

Binder: YRGDSPDG
Unit string: nM
IC50: 80

Binder: LRGDSPDG
Unit string: nM
IC50: 200

Binder: G[Pen]FRGDSFCA (disulfide 2-9) [G(Pen)FRGDSFCA]
Unit string: nM
IC50: 50

Binder: G[Pen]GRGDSFCA (disulfide 2-9) [G(Pen)GRGDSFCA]
Unit string: nM
IC50: 20

# credit: patent US6521594
